A collection of molecules and their measured Total Cell Count
System: HEK-293T
TEST_METHOD_NOTES: Multiplex assay against HEK293T
Assay type: toxicity, cell-based
CONDITIONS: human, 48 h, 1 µM, compound concentration 1 uM, replicate 2
Reply with just the number.

Examples with their reported Total Cell Count follow.
- COc1ccccc1CN[C@H]1C2CCN(CC2)[C@H]1C(c1ccccc1)c1ccccc1: 612
- CC(C)(C)NC[C@H](O)COc1nsnc1N1CCOCC1: 733
- CC1=C(C(=O)Nc2cc3cn[nH]c3cc2F)C(c2ccc(C(F)(F)F)cc2)CC(=O)N1 (centres undefined): 488

# ---- query molecule ----
Q: Param item = CCCSc1nc(N[C@@H]2C[C@H]2c2ccc(F)c(F)c2)c2nnn([C@@H]3C[C@H](OCCO)[C@@H](O)[C@H]3O)c2n1 ; retrieve measured Total Cell Count.
A: 492
